Overview of reported EC50 across a group of compounds:
Target: Human S1P1 receptor (Homo sapiens, UniProt P21453)
Construct: expressed in transfected cells; host or cells: HEK 293 or CHOK1 cells (membranes)
Sequence (P21453 whole entry): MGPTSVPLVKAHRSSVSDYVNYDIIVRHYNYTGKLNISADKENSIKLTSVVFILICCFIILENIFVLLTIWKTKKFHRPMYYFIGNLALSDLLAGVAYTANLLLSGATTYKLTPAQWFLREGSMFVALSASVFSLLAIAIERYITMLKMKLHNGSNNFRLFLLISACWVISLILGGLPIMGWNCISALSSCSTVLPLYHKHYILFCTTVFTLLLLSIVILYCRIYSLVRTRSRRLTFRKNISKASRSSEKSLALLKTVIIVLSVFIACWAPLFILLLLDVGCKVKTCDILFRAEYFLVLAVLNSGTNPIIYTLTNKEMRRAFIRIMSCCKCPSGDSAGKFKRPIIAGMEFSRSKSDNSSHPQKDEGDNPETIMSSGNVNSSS
Assay: GTP-γ-35S binding, agonist activity on S1P1 receptor
Type: biochemical
Conditions: membranes of transfected HEK 293 or CHOK1 cells, [35S]GTP-γ-S binding
Respond numerically; units are nM and should not be typed.

Compound | Tgt | Quantity Measured | Value
CCCCCCCCCc1ccc(CNC2CCC(C(=O)O)(C(=O)O)C2)cc1 (centres unmarked) | Human S1P1 receptor (Homo sapiens, UniProt P21453) | EC50 | 6

// switching to the query compound
Q: Query: EC50; subject: CCCCCCCCCCc1ccc(CNC2CCC(C(=O)O)(C(=O)O)C2)cc1 (centres unmarked)
Result: 13
